read-out: serum amyloid A (SAA), SAA1 (gene 6288); experiment: BSK_CASM3C_SAA: BioMAP Diversity Plus: CASM3C Assay for serum amyloid A (SAA) Biomarker Activity (AID 2283049); conditions: primary human coronary artery smooth muscle cells; actives raise or lower the signal;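 also: SAA protein level quantified by ELISA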
Activity calls are given as the source filed them. The calls were made as follows: active = hit-call score of the fitted dose curve at least 0.9, where 1 is the maximum; inactive = score below 0.9.
Outcomes you can answer with include only these: active, inactive

See these solved cases before continuing.
| compound | classification |
| --- | --- |
| COc1cc(OC)nc(NC(=O)NS(=O)(=O)c2ncccc2C(=O)N(C)C)n1 | inactive |
| ClCC(Cl)CCl | inactive |
| NC(=S)Nc1ccccc1 | inactive |
| Oc1ccc(-c2ccccc2)cc1 | inactive |
| CC(=O)C(Cl)C(=O)N(C)C (configuration not stated) | inactive |

I would be grateful if you could indicate the recorded call for BrCCBr . inactive

Try this compound next: O=C1C2(Cl)C3(Cl)C4(Cl)C(Cl)(Cl)C5(Cl)C3(Cl)C1(Cl)C5(Cl)C24Cl (configuration not stated) active
